- Target Entity: DYRK1a (Homo sapiens, UniProt Q13627)
Recorded Endpoint: pIC50
One number for each entry, as −log10 of the molar value.

## Input Any idea what pIC50 was measured for COC(=N)c1nc2ccc3ncnc(Nc4ccc(Cl)cc4Cl)c3c2s1 ?
## Output 7.08

## Input Any idea what pIC50 was measured for O=C(O[C@@H]1Cc2c(O)cc(O)cc2O[C@@H]1c1cc(O)c(O)c(O)c1)c1cc(O)c(O)c(O)c1 [EGCG, Epigallocatechin gallate] ?
## Output 5.85

Next:
## Input Any idea what pIC50 was measured for Cc1ccc(C(=O)Nc2c[nH]nc2C(=O)NCCCOC(C)C)cn1 ?
## Output 6.12

###

Give EC50 for every item shown.
- System: phosphorylated tau at Ser396 in SH-SY5Y cells
- Protocol Summary: pSer396Tau ELISA in SH-SY5Y neuroblastoma cells
- Format: cell-based, human
- Assay Conditions: overnight (16 hr) treatment, single lot, read-out: Cell assay EC50 pTau at Ser396

Go through the list and state EC50 for each entry.
1. O=C(O[C@@H]1Cc2c(O)cc(O)cc2O[C@@H]1c1cc(O)c(O)c(O)c1)c1cc(O)c(O)c(O)c1 [EGCG, Epigallocatechin gallate]
2. CCN1/C(=C/C(C)=O)Sc2ccc(OC)cc21 [TG003]
3. CCN1/C(=C/C(C)=O)Sc2ccc(O)cc21 [INDY]

## Output
["> 10 µM", "> 10 µM", "> 10 µM"]

Reference source: paper PMC6718548
